- Tested on: Liver microsomes
- method description: Intrinsic clearance in human liver microsomes
- Type: ADME, Microsome
reported endpoint: CLH

COc1ncc(-c2cccc(OC(F)F)c2CCNC(=O)c2ccc(OCCC(F)(F)F)nc2)cn1 :: < 10 µL/min/µg
COc1ncc(-c2cccc(C)c2CCNC(=O)c2ccc(OCCC(F)(F)F)nc2)cn1 :: 65 µL/min/µg
COc1ncc(-c2cccc(F)c2CCNC(=O)c2ccc(OCCC(F)(F)F)nc2)cn1 :: < 10 µL/min/µg
O=C(NCCc1ccccc1-c1ccc(CO)nc1)c1ccc(OCCC(F)(F)F)nc1 :: 10 µL/min/µg
COc1ncc(-c2cccnc2CCNC(=O)c2ccc(OCCC(F)(F)F)nc2)cn1 :: < 10 µL/min/µg

Short answer on Liver microsomes for `Cc1ncc(-c2ccccc2CCNC(=O)c2ccc(OCCC(F)(F)F)nc2)cn1` , CLH: 11 µL/min/µg

Short answer on Liver microsomes for `Cc1ncc(-c2ccccc2CCNC(=O)c2ccc(C(=O)NCCCC(F)(F)F)nc2)cn1` , CLH: 11 µL/min/µg

* * *

- System: Rattus norvegicus
- method description: Dose normalised AUC in rat at 10 umol/kg, po
- Format: ADME, organism-based
- details: in vivo
Overview of recorded AUC/dose for various compounds
Respond numerically; units are kg·h/L and should not be typed.

Short answer on Rattus norvegicus for `COc1ncc(-c2cccc3c2C[C@H](NC(=O)c2ccc(OCCC(F)(F)F)nc2)CO3)cn1` , AUC/dose: 0.32

* * *

- Tested on: Liver microsomes
- method description: Metabolic stability in human liver microsomes by glutathione trapping assay
- Format: ADME, Microsome
reported endpoint: Stability

Use the examples below as a reference point.
Cc1ncc(-c2ccccc2CCNC(=O)c2ccc(C(=O)NCCCC(F)(F)F)nc2)cn1 :: Unstable
COc1ncc(-c2cccc(C)c2CCNC(=O)c2ccc(OCCC(F)(F)F)nc2)cn1 :: Stable
COc1ncc(-c2cccc(F)c2CCNC(=O)c2ccc(OCCC(F)(F)F)nc2)cn1 :: Unstable
COc1cnc(-c2c(C)ccc(F)c2CCNC(=O)c2ccc(COCC(F)(F)F)nc2)cn1 :: Unstable

Stability reading for `COc1ncc(-c2cccc(C#N)c2CCNC(=O)c2ccc(OCCC(F)(F)F)nc2)cn1` : Stable

* * *

Overview of recorded CLH for various molecules
- Tested on: Liver microsomes
- method description: Intrinsic clearance in rat liver microsomes
- Assay type: ADME, Microsome
Respond numerically; units are µL/min/µg and should not be typed.

Use the examples below as a reference point.
COc1ncc(-c2cccc(OC(F)F)c2CCNC(=O)c2ccc(OCCC(F)(F)F)nc2)cn1 :: 190
COc1cnc(-c2c(F)ccc(F)c2CCNC(=O)c2ccc(COCC(F)(F)F)nc2)cn1 :: 45
COc1ncc(-c2cccc(OC)c2CCNC(=O)c2ccc(OCCC(F)(F)F)nc2)cn1 :: 17
COc1ncc(-c2c(C)ccc(F)c2CCNC(=O)c2ccc(OCC(F)(F)F)nc2)cn1 :: 35
COc1ncc(-c2ccccc2C(F)(F)CNC(=O)c2ccc(COCC(F)(F)F)nc2)cn1 :: 13

CLH reading for `O=C(NCCc1ccccc1-c1cnc(OC(F)F)cn1)c1ccc(OCCC(F)(F)F)nc1` : 270

CLH reading for `COc1ccc(CCNC(=O)c2ccc(OCCC(F)(F)F)nc2)c(-c2cnc(OC)nc2)c1` : 150

CLH reading for `COc1cnc(-c2c(OC)ccc(F)c2CCNC(=O)c2ccc(COCC(F)(F)F)nc2)cn1` : 67

* * *

- Tested on: Liver microsomes
- method description: Intrinsic clearance in human liver microsomes
- Type: ADME, Microsome
Overview of recorded CLH for various molecules
Respond numerically; units are µL/min/µg and should not be typed.

COc1cnc(-c2c(OC)ccc(F)c2CCNC(=O)c2ccc(COCC(F)(F)F)nc2)cn1 :: 46

CLH reading for `Cc1ncc(-c2ccccc2CCNC(=O)c2ccc(OCCOCC(F)(F)F)nc2)cn1` : 23

* * *

- System: Rattus norvegicus
- method description: Dose normalised AUC in rat at 10 umol/kg, po
- Format: ADME, organism-based
- details: in vivo
reported endpoint: AUC/dose (kg·h/L)
Respond numerically; units are kg·h/L and should not be typed.

COc1ncc(-c2cccc(C)c2CCNC(=O)c2ccc(OCCC(F)(F)F)nc2)cn1 :: 0.002
COc1ncc(-c2ccccc2C(F)(F)CNC(=O)c2ccc(COCC(F)(F)F)nc2)cn1 :: 0.24
COc1cnc(-c2c(C)ccc(F)c2CCNC(=O)c2ccc(COCC(F)(F)F)nc2)cn1 :: 0.03
COc1cnc(-c2c(F)ccc(F)c2CCNC(=O)c2ccc(COCC(F)(F)F)nc2)cn1 :: 0.06

Note: attention shifts to another entry.
AUC/dose reading for `Cc1cnc(-c2c(F)ccc(F)c2CCNC(=O)c2ccc(COCC(F)(F)F)nc2)cn1` : 0.05

* * *

Overview of recorded CLH for various molecules
- System: Liver microsomes
- method description: Intrinsic clearance in human liver microsomes
- Type: ADME, Microsome

Cc1ncc(-c2ccccc2CCNC(=O)c2ccc(COCC(F)(F)F)nc2)cn1 :: < 10 µL/min/µg
COc1ncc(-c2cccc(C#N)c2CCNC(=O)c2ccc(OCCC(F)(F)F)nc2)cn1 :: < 10 µL/min/µg

Note: attention shifts to another entry.
CLH reading for `COc1cnc(-c2cccc(F)c2C(F)(F)CNC(=O)c2ccc(COCC(F)(F)F)nc2)cn1` : < 10 µL/min/µg

Origin of measurements: ChEMBL document CHEMBL2146409
